Values were extracted from the nanobody polyreactivity screen of Harvey et al. (2022).

Experiment: yeast display, Sf9 membrane polyspecificity reagent, FACS + sequencing; frameworks hold sequencing errors
Endpoint: polyreactivity (PSR sort gate)

Consider the worked cases shown below.
* QVQLVESGGGLVQAGGSLRLSCAASGRIFGAYAMGWYRPAPGKERELVAAITSRGSTNYADSVKGRFTISRDHAKNTVYLQMNSLNPEDTAVYYCARRAVYSKRRYDYWGQGTQVTVSS | low polyreactivity
* QVQLVESAGGLVQAGGSLRLSCAASGRIFVTNAMGLYRQAPGKEREFVAGISFSGDGRTYYADSVKGRFTISRDYAKNSVYFQMNSLKPEDTAVYYCAAPHRSRTHELDYWGLGTQVTVSS | low polyreactivity
* QVQLVESGGGLVQAGGSLRLSCAASGSILDVYAMGWYRQAPGKERELVATISWSGGDTYYADSVKGRFTISRDNAKNTVYLQMNSLKPEDTAVYYCNDVFSYYGYDYWGQGTQVTVSS | low polyreactivity
* QVQLVESGGGLVQAGGSLRLSCDASGFIFDHNAMGWYRQAPGKERELVAAISWGYGSTYYADSVKGRFTISRDNAKNTVYLQMNRLKTEDTAVYYCAARAVRYYAWVRGGCTSFDYWGQGTQVTVSS | high polyreactivity
* QVQLVESGGGLVQAGGSLRLSCAASGFIFARYAMGWYRQAPGKERELVATISKSGGRTYYADSVKGRFTISRDNAKNTVYLQMNSLKPEDTAVYYCATRYSTTSPGDDYWGQGTQVTVSS | high polyreactivity

For the 5 sequences below, give their polyreactivity (PSR sort gate) values.
1. QVQLVESGGGLVQAGGSLRLSCAASGSTFFLYVRGWYRQAPGKERELVAAITSGGRTYYADSVKGRFTISRDNAKNTVYLQMNSLKPEDTAVYNCAADVRRVRVGKYDYWGQGTQVTVSS
2. QVQLVESGGGLVQAGGSLRLSCAASGSTFALNAMGWYRQAPGKERELVAAIDDSGITYYADSVKGRFTISRDNAKNTVYLQMNSLKPDDTAVYYCAKKEWKSRTHAKGDQYPDDYWGQGTQVTVSS
3. QVQLVESGGGLVQAGGSLRLSCAASGSIIKYYAMGWYRQAPGKERELVAAISWRGGRTYADSVKGRFTISRDNAKNTVYLQLNSLKPEDTAVYYCNARAPQGYGTHRSKYRWGPMGYWGQGTQVTVSS
4. QVQLVESGGGLVQAGGSLRLSCAASGRTFGYNAMGWYSQAPGKERELVAAISWSGGRTYYADSVKGRFTISRDNAKNTVYLQMNSLKPEDTAVYYCAALPSVTNRYYIYGYWGQGTQVTGSS
5. QVQLVESGGGLVQAGGSLRLSCAASGFTFPGYTMGRYRQAPGKERELVAAITWSGGRTYYADSVKGRFTITRDNAKNTVYLQMNSLKPEDTEVYYCAANFGAFYGNRDYWGQGTQVTVSS

1: high polyreactivity; 2: low polyreactivity; 3: high polyreactivity; 4: high polyreactivity; 5: high polyreactivity

Please look up its polyreactivity (PSR sort gate): QVQLVESGGGLVQAGGSLRLSCAASGRTFPYYTMGWYREAPGKERELVAAIDGSGDNTYYADSVKGRFTISRDNAKNTLYLHMNSLKPEHTAVYYCTADTGLGTRDFEKRDYWGQGTQVTVSS low polyreactivity
